Ref: patent US20120077731A1

target-under-test: T1, Human soluble IL-6R (human, UniProt P08887 20-358)
T1 construct: Soluble recombinant form; biotinylated in some assays; also called hIL-6R; human IL-6R
T1 sequence (looked up): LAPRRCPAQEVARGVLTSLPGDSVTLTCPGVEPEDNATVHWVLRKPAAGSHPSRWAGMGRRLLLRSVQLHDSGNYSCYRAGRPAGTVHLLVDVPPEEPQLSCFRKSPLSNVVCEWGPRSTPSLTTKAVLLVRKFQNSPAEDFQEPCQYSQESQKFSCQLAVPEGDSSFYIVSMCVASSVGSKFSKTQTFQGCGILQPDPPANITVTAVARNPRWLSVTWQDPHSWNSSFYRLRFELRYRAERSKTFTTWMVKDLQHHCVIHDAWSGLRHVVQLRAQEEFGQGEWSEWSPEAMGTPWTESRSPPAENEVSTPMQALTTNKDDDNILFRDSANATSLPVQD
assay-explanation: Alphascreen IL-6/IL-6R competition (IL-6R 0.3 nM, bio-IL-6 3 nM); row EC50 of the fit table, axis [competitor], M; blocked ligand IL-6
measured-quantity: pIC50
Remember, pIC50 is on a log scale: it is -log10 of the molar concentration.

Provide pIC50 value for the following binder: IL6R82 (VHH) VHH: EVQLVESGGGLVQPGGSLRLSCAASGFTFDDYGMSWVRQAPGKGLEWVSAISWNGNNTYYTESMKGRFTISRDNAKNTVYLQMNSLRPEDTAVYYCVKGSTAIVGVPPTYPDEYDYWGQGTLVTVSS
9.32

Provide pIC50 value for the following binder: IL6R83 (VHH) VHH: EVQLVESGGGLVQPGGSLRLSCAASGFTFDDYGMSWVRQAPGRATEWVSAISWNGNNTYYTESMKGRFTISRDNAKNTLYLQMNSLRPEDTAVYYCVKGSTAIVGVPPTYPDEYDYWGQGTLVTVSS
10.11

Provide pIC50 value for the following binder: IL6R13 (VHH, also called PMP35H4; not shown: C-terminal c-myc and (His)6 tags) VHH: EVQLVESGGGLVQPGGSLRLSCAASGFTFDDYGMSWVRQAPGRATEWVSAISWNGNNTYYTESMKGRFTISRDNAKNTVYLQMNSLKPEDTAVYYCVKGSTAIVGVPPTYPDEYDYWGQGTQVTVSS
10.19

Provide pIC50 value for the following binder: IL6R81 (VHH) VHH: EVQLVESGGGLVQPGGSLRLSCAASGFTFDDYGMSWVRQAPGRATEWVSAISWNGNNTYYTESMKGRFTISRDNAKNTVYLQMNSLRPEDTAVYYCVKGSTAIVGVPPTYPDEYDYWGQGTLVTVSS
10.13

Provide pIC50 value for the following binder: IL6R84 (VHH) VHH: EVQLVESGGGLVQPGGSLRLSCAASGFTFDDYGMSWVRQAPGKGLEWVSAISWNGNNTYYTESMKGRFTISRDNAKNTLYLQMNSLRPEDTAVYYCVKGSTAIVGVPPTYPDEYDYWGQGTLVTVSS
9.33
